Give measured phage binding ELISA signal for each item. Keep answers brief.
# experimental-target: T1, PSMA Fab (biotinylated (site not stated))
# T1 construct: also called Anti-PSMA Fab; 006 PSMA Fab
# test: clonal phage ELISA on biotinylated PSMA Fab captured on neutravidin plates, blocking buffer alone, anti-M13-HRP detection
Where no end group is shown, it is not given here.
Could you keep your reply to the number by itself?

Qu. Entry LTNWCTPSWMCYGL (Clonal phage displaying the peptide, tested as crude supernatant; also called peptide-180 library clone; not shown: fused to the pIII filament protein of the bacteriophage) [Phage-2577] : reported phage binding ELISA signal = ?
Ans. 1.09

Qu. Same read-out for ETQMCVPQWMCWGI (Clonal phage displaying the peptide, tested as crude supernatant; also called peptide-180 library clone; not shown: fused to the pIII filament protein of the bacteriophage) [Phage-2586] ?
Ans. 1.07

Qu. Again, but for EFKWCTPEWMCAMA (cysteine pairing not given here; also: fused to phage pIII, linker and fusion site not given here, Clonal phage displaying the peptide, tested as crude supernatant; also called peptide-180 library clone; not shown: fused to the pIII filament protein of the bacteriophage) [Phage-2575]
Ans. 1.09
